# System: rHSP90 in the MCF7 cell lysates
# test: Cell lysate binding assay
# assayConditions: 50% inhibition of biotin-GM binding to rHSP90 in MCF7 cell lysates
pIC50: −log10 of the molar value.
readoutKind: pIC50

recordSmiles	readoutKind	reportedResult
Cc1cnc(Cn2ccc3c(Cl)nc(N)nc32)c(C)c1Br	pIC50	7.05

a: Cc1c[n+]([O-])c(Cn2ccc3c(Cl)nc(N)nc32)c(C)c1Cl
b: Cc1cnc(Cn2ccc3c(Cl)nc(N)nc32)c(C)c1Cl
c: COc1c(C)cnc(Cn2ccc3c(Cl)nc(N)nc32)c1C
d: Cc1c[n+]([O-])c(Cn2ccc3c(Cl)nc(N)nc32)c(C)c1Br
Query string: Provide the items ranked by increasing pIC50. Quick reminder: the answer is the labels in the order asked.
Result string: c, b, a, d
